Test system: J-Lat 10.6 cells
Assay: in vitro
Type: cell-based, human
Conditions: read-out: cellular CC50
Method: Figure 1 HIV-1 latency reversal activity of methanolic crude extract (EU), partitioned n-hexane (EU-H), dichloromethane (EU-C), ethyl acetate (EU-E), and water-soluble residue (EU-W) phases. (A) dose-response experiments conducted with Jurkat T cells that were latently infected with full-length HIV-1 reporter construct (J-Lat 10.6 cells), HIV-1 reactivation quantified as % of positive control (PMA); (B) cell viability of each sample at 10, 50, 100, 500, and 1000 μg/mL. […]
Readout Type: CC50

CC(=O)O[C@@]12[C@H](OC(=O)c3ccccc3)[C@@H](C)[C@]3(O)[C@@H]4C=C(C)C(=O)[C@H]4CC(CO)=C[C@H]3[C@@H]1C2(C)C [Compound 14, 4β-Crotignoid K] has a reported CC50 of > 160 µM

----------
Assay: in vitro
Assay type: cell-based, human
Conditions: human, J-Lat 10.6 cells; read-out: cellular CC50
Readout Type: CC50 at 24 h
Express your answer as a number followed by its unit.

{"Query Smiles": "CC(=O)O[C@@]12[C@H](OC(=O)c3ccccc3)[C@@H](C)[C@]3(O)[C@@H]4C=C(C)C(=O)[C@H]4CC(CO)=C[C@H]3[C@@H]1C2(C)C", "CC50 at 24 h": "160 µM"}

Now let's try a different one.
CC(=O)O[C@@]12[C@H](OC(=O)c3ccccc3)[C@@H](C)[C@]3(O)[C@@H]4C=C(C)C(=O)[C@@H]4CC(CO)=C[C@H]3[C@@H]1C2(C)C has a reported CC50 at 24 h of 40 µM

Ref: paper PMC8308672
